Give measured H1.0 immunofluorescence intensity for each item. Keep answers brief.
test system: HCC1569; experiment: H1.0 immunofluorescence intensity relative to DMSO (% of DMSO); higher = stronger H1.0 induction, active = 140 or more; conditions: concentration: 10 µM; 24 h;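 note: TDF is a line of transformed human dermal fibroblasts of mesenchymal origin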
The reply should be a number, written without any unit.

Need H1.0 immunofluorescence intensity, item Br.COC(=O)C1=CCCN(C)C1
82.8

Data request, read-out H1.0 immunofluorescence intensity, for Cl.FC(F)(F)c1cccc(C2=CCN(CCc3ccc4ccccc4c3)CC2)c1
100

What does the record list as H1.0 immunofluorescence intensity for C[N+]1(C)C2CC(OC(=O)C(CO)c3ccccc3)CC1C1OC12.O=[N+]([O-])[O-] (single isomer, unassigned; (-)) [(-)-Scopolamine methyl nitrate] ?
106
